Target: human CAR (hCAR) (Homo sapiens, UniProt Q14994)
Sequence (Q14994 1-348 isoform Q14994-2): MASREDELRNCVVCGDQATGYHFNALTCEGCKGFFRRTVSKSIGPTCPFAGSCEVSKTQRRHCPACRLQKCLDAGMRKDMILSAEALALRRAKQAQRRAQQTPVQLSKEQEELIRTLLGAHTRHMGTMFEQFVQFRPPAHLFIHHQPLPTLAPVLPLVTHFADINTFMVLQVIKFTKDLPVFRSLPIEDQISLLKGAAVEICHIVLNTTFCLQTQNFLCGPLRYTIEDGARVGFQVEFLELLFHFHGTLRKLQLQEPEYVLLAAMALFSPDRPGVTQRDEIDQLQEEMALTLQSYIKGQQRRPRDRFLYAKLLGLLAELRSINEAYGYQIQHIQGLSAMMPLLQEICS
Experiment: hCAR luciferase reporter qHTS, antagonist mode (HepG2-CYP2B6-hCAR cells, CITCO co-treatment)
Settings: Primary Screen Potency (IC50), antagonist mode, primary qHTS, 0.1 μM CITCO, 24 h
Listed below: IC50 values for each entry.
Endpoint: IC50

[[record]]
compound = "CC(C)C[C@H](NC(=O)[C@H](Cc1ccccc1)NC(=O)c1cnccn1)B(O)O [Bortezomib]"
endpoint = "IC50"
value = "20 nM"

[[record]]
compound = "O=c1[nH]c(=O)n([C@H]2C[C@H](O)[C@@H](CO)O2)cc1C(F)(F)F [Trifluridine]"
endpoint = "IC50"
value = "6700 nM"

[[record]]
compound = "CC[C@@]1(O)C(=O)OCc2c1cc1n(c2=O)Cc2cc3c(CN(C)C)c(O)ccc3nc2-1 [Topotecan]"
endpoint = "IC50"
value = "60 nM"

[[record]]
compound = "Nc1ncnc2c1ncn2CCOCP(=O)(O)O [Adefovir]"
endpoint = "IC50"
value = "760 nM"

[[record]]
compound = "CO[C@@]12[C@H](COC(N)=O)C3=C(C(=O)C(C)=C(N)C3=O)N1C[C@@H]1N[C@@H]12 [Mitomycin C]"
endpoint = "IC50"
value = "430 nM"

[[record]]
compound = "Cc1c(O)cccc1C(=O)N[C@@H](CSc1ccccc1)[C@H](O)CN1C[C@H]2CCCC[C@H]2C[C@H]1C(=O)NC(C)(C)C [Nelfinavir]"
endpoint = "IC50"
value = "9520 nM"

[[record]]
compound = "C[C@@H]1O[C@@H](O[C@H]2C[C@@H](O)[C@]3(CO)[C@H]4[C@H](O)C[C@]5(C)[C@@H](C6=CC(=O)OC6)CC[C@]5(O)[C@@H]4CC[C@]3(O)C2)[C@H](O)[C@H](O)[C@H]1O [Ouabain]"
endpoint = "IC50"
value = "300 nM"

[[record]]
compound = "C[C@H]1O[C@@H](O[C@H]2[C@@H](O)C[C@H](O[C@H]3[C@@H](O)C[C@H](O[C@H]4CC[C@@]5(C)[C@H](CC[C@@H]6[C@@H]5CC[C@]5(C)[C@@H](C7=CC(=O)OC7)CC[C@]65O)C4)O[C@@H]3C)O[C@@H]2C)C[C@H](O)[C@@H]1O [Digitoxin]"
endpoint = "IC50"
value = "80 nM"


###

Experiment: Cell viability assay (CellTiter-Glo ATP quantitation)
Type: cell-based, human
Conditions: human, HepG2-CYP2B6-hCAR cells, read-out: Cytotoxicity Potency
Let's look at some compounds and their measured IC50 at 24 h.
Endpoint: IC50 at 24 h (µM)

[[record]]
entry_smiles = "CC(C)C[C@H](NC(=O)[C@H](Cc1ccccc1)NC(=O)c1cnccn1)B(O)O"
endpoint = "IC50 at 24 h"
value = 1.25

[[record]]
entry_smiles = "COc1cccc2c1C(=O)c1c(O)c3c(c(O)c1C2=O)C[C@@](O)(C(C)=O)C[C@@H]3O[C@H]1C[C@H](N)[C@H](O)[C@H](C)O1"
endpoint = "IC50 at 24 h"
value = 15.9


###

Tested on: CYP3A4
Assay: CYP3A4 mRNA expression in HPH (real-time PCR)
Type: cell-based, human
Settings: HPH, 24 h, vs vehicle control (0.1% DMSO)
Endpoint: Effect on CYP3A4 mRNA expression

[[record]]
molecule = "Nc1ncnc2c1ncn2CCOCP(=O)(O)O"
endpoint = "Effect on CYP3A4 mRNA expression"
value = "negligible effect"

[[record]]
molecule = "Cc1c(O)cccc1C(=O)N[C@@H](CSc1ccccc1)[C@H](O)CN1C[C@H]2CCCC[C@H]2C[C@H]1C(=O)NC(C)(C)C"
endpoint = "Effect on CYP3A4 mRNA expression"
value = "negligible effect"

[[record]]
molecule = "COc1cc(N)c(Cl)cc1C(=O)NC1CCN(Cc2ccccc2)CC1 [Clebopride]"
endpoint = "Effect on CYP3A4 mRNA expression"
value = "markedly enhanced"

[[record]]
molecule = "Clc1ccc(Nc2nnc(Cc3ccncc3)c3ccccc23)cc1"
endpoint = "Effect on CYP3A4 mRNA expression"
value = "markedly enhanced"

[[record]]
molecule = "CCO[C@H]1O[C@@H]2O[C@@]3(C)CC[C@H]4[C@H](C)CC[C@@H]([C@H]1C)[C@@]24OO3"
endpoint = "Effect on CYP3A4 mRNA expression"
value = "markedly enhanced"

[[record]]
molecule = "CC[C@@]1(O)C(=O)OCc2c1cc1n(c2=O)Cc2cc3c(CN(C)C)c(O)ccc3nc2-1"
endpoint = "Effect on CYP3A4 mRNA expression"
value = "negligible effect"


###

Known EC50 of a selection of compounds
Target: human CAR (hCAR) (Homo sapiens)
Sequence (Q14994 1-348 isoform Q14994-2): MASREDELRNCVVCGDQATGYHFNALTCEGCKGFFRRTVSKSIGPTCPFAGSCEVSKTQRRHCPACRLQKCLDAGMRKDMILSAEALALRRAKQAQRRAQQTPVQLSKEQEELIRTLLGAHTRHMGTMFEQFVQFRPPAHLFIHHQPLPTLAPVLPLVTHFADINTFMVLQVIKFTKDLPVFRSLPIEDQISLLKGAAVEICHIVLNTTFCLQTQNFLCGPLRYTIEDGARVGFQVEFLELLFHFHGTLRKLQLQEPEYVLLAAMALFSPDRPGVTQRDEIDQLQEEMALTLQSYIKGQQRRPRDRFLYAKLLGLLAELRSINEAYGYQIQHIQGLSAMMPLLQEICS
Test: hCAR luciferase reporter qHTS, agonist mode (HepG2-CYP2B6-hCAR cells, PK11195 co-treatment)
Conditions: Follow-up Confirmation Potency (EC50), agonist mode, follow-up cherry-pick, 11-point titration
Endpoint: EC50 (µM)

[[record]]
compound = "O=c1cc(-c2ccccc2)oc2ccccc12"
endpoint = "EC50"
value = 32.4

[[record]]
compound = "CCCCNc1c(C(=O)OCC)c(C)nc2c1cnn2CC [Tracazolate]"
endpoint = "EC50"
value = 24

[[record]]
compound = "Nc1ccc(Cl)cc1C(=O)c1ccccc1F"
endpoint = "EC50"
value = 15.6

[[record]]
compound = "CC(COc1ccccc1)N(CCCl)Cc1ccccc1 (stereo not shown)"
endpoint = "EC50"
value = 12

[[record]]
compound = "NNCCc1ccccc1"
endpoint = "EC50"
value = 15.9

[[record]]
compound = "CCO[C@H]1O[C@@H]2O[C@@]3(C)CC[C@H]4[C@H](C)CC[C@@H]([C@H]1C)[C@@]24OO3"
endpoint = "EC50"
value = 5

[[record]]
compound = "Clc1ccc(Nc2nnc(Cc3ccncc3)c3ccccc23)cc1"
endpoint = "EC50"
value = 12.6

[[record]]
compound = "COc1cc(N)c(Cl)cc1C(=O)NC1CCN(Cc2ccccc2)CC1 [Clebopride]"
endpoint = "EC50"
value = 9.4

[[record]]
compound = "CC(C)=CCOc1c2occc2cc2ccc(=O)oc12"
endpoint = "EC50"
value = 14

[[record]]
compound = "CN1CCc2cccc3c2[C@H]1Cc1ccc(O)c(O)c1-3"
endpoint = "EC50"
value = 13.3


###

Target: human CAR (hCAR) (Homo sapiens, UniProt Q14994)
Sequence (Q14994 1-348 isoform Q14994-2): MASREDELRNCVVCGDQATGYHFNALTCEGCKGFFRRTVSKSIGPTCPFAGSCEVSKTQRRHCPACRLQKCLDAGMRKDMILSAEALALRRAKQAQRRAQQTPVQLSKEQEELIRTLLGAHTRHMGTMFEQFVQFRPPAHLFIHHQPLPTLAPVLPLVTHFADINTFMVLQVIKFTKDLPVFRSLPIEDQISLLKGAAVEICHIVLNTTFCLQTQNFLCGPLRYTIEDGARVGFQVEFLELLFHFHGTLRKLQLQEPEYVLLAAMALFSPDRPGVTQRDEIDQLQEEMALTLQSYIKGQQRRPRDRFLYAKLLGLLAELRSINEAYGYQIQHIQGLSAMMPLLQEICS
Experiment: hCAR luciferase reporter qHTS, antagonist mode (HepG2-CYP2B6-hCAR cells, CITCO co-treatment);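 note: stable HepG2 line carrying hCAR plus a CYP2B6 promoter (PBREM/XREM) luciferase reporter, 1536-well format, 24 h compound exposure at 37 °C, then luminescence read with ONE-Glo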
Conditions: antagonist mode, primary qHTS, relative to PK11195 (100%)
Simple rule here: Primary Screen Efficacy less than -90% is satisfied, otherwise not satisfied.

[[record]]
entry_smiles = "C[C@H]1O[C@@H](O[C@H]2[C@@H](O)C[C@H](O[C@H]3[C@@H](O)C[C@H](O[C@H]4CC[C@@]5(C)[C@H](CC[C@@H]6[C@@H]5CC[C@]5(C)[C@@H](C7=CC(=O)OC7)CC[C@]65O)C4)O[C@@H]3C)O[C@@H]2C)C[C@H](O)[C@@H]1O"
assigned_class = "not satisfied"

[[record]]
entry_smiles = "CC[C@@]1(O)C(=O)OCc2c1cc1n(c2=O)Cc2cc3c(CN(C)C)c(O)ccc3nc2-1"
assigned_class = "satisfied"

[[record]]
entry_smiles = "Nc1ncnc2c1ncn2CCOCP(=O)(O)O"
assigned_class = "satisfied"

[[record]]
entry_smiles = "CC(C)C[C@H](NC(=O)[C@H](Cc1ccccc1)NC(=O)c1cnccn1)B(O)O"
assigned_class = "satisfied"

